Provenance of the data: paper PMC5046105

biological target: PDZØ9, engineered variant (L391F/K392M) of pWT SAP97 PDZ2 (human) (UniProt Q12959); test: stopped-flow spectroscopy
Sequence (Q12959 311-407, change not shown): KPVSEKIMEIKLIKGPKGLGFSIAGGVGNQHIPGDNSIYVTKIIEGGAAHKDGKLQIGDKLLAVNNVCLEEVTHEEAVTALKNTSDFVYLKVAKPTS
Ends that are not written are not given here.
reported property: Kd (nM)
Please respond with the number in nM and leave the unit unwritten.

Input line: Report Kd for Ac-KRKETLV [KRKETLV peptide (C-terminus of neuroepithelial cell-transforming gene 1 protein, Net1)] please.
Output line: 80
